Collected inhibition of aggregation values appear next to each entry.
# procedure details: reduction of polyQ htt aggregates in cells – imaging, exon1htt(103Q)mCFP cells, high-content imaging, primary screen (AID 483);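 further: compound exposure lasted 3 days before fixation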
# experimental parameters: exon1htt(103Q)mCFP cell line, aggregate imaging, at 2 µM; active compounds read high
quantity measured: inhibition of aggregation (%)

{"columns": ["compound", "measured result"],
 "data": [
  ["CN(CC(O)COCc1cccs1)C1CCCCC1 (stereo unspecified)", 1.5],
  ["Cc1cccc(-n2ncc(C#N)c2N)c1", 11.6],
  ["C=CCOC(=O)C(C#N)c1nc2ccccc2nc1N1CCN(Cc2ccccc2)CC1 (stereo unspecified)", -12.3],
  ["CN(CC(=O)N1CCN(C2CCCCC2)CC1)S(=O)(=O)c1cccc2nsnc12", -4.6],
  ["CCOc1ccc(OCc2cccc(C(=O)O)c2)cc1", -11.5],
  ["Cc1nc2cc(NC(=O)N3CC4(C)CC3CC(C)(C)C4)ccc2n1C (stereo unspecified)", 6.5],
  ["O=C(CSC1=NC(=O)C(Cc2ccccc2)C(=O)N1)NC1CCCCC1 (stereo unspecified)", -13.9],
  ["CCOC(=O)c1cccc(NC(=O)Cn2cnc3c2c(=O)n(C)c(=O)n3C)c1", 2.8],
  ["c1ccc(-c2cc3c(nn2)CCc2nonc2-3)cc1", 19.1],
  ["CN(C(=O)COC(=O)C1CCN(S(=O)(=O)c2cccs2)CC1)C1CCS(=O)(=O)C1 (stereo unspecified)", 6],
  ["N#Cc1c(NC(=O)COC(=O)C2CC3C=CC2C3)oc(-c2ccccc2)c1-c1ccccc1 (stereo unspecified)", -7.7],
  ["O=C1CC(c2ccco2)=Nc2ccccc2N1", 7.9],
  ["CCOC(=O)C1CCN(C(=O)c2ccc(OC)cc2OC)CC1", 0.1],
  ["CC(=O)CC(=O)Nc1ccccc1NC(C)=O", -2.9],
  ["Cc1cc(C(=O)Nc2cc(C)n(Cc3ccc(Cl)cc3)n2)no1", -10.6],
  ["COc1cc2c(OC)cccc2cc1C(=O)O", -13.5],
  ["CS(=O)(=O)N(CC(=O)NCc1ccccn1)c1ccc2c(c1)OCCO2", 13],
  ["O=C(NC1(C(F)(F)F)NC(=O)N(Cc2ccco2)C1=O)c1cccnc1 (stereo unspecified)", 1.2],
  ["O=C(Nc1cccc(C(=O)N2CCOCC2)c1)c1cccnc1", -7.7],
  ["CCCn1nc(NS(=O)(=O)c2ccccc2)c2cc3ccccc3nc21", -8.5],
  ["CCc1ccc(NS(=O)(=O)c2cccs2)cc1", -18.3],
  ["O=C(O)CCc1ccc(-c2cccs2)n1NC(=O)c1ccco1", -10.1],
  ["COc1ccccc1C(=O)Nc1c2c(nn1-c1cccc(C)c1C)CS(=O)(=O)C2", -7],
  ["COc1cccc(-n2c(SCC(=O)OC(C)C)nnc2-c2cccnc2)c1", -5.3],
  ["Cc1ccccc1N(CC(=O)NCC1CCCO1)C(=O)C1(C)CC(=O)N=C2C=CC=CN21 (stereo unspecified)", -3.5],
  ["Cc1ccc(-c2nn(C)c(=O)c3ccccc23)cc1S(=O)(=O)N1CCOCC1", -24.4],
  ["COc1ccccc1-n1cnnc1SCC(=O)c1ccc[nH]1", 6.1],
  ["CC1CCN(S(=O)(=O)c2ccc(NC(=O)CSc3nnnn3C)cc2)CC1", -4.7],
  ["COCCn1c(N)c(C(=O)Nc2sc3c(c2C(=O)OC)CCCC3)c2nc3ccccc3nc21", 21.8],
  ["O=C(Cc1ccsc1-c1ccccc1)NO", 11.3],
  ["CCOc1ccc(-n2c(C)nc3c(cnn3-c3ccc(Cl)cc3)c2=O)cc1", -23.6],
  ["CCC(c1nnc(SCC(=O)NCC2CCCO2)n1Cc1ccccc1)N(C)C (stereo unspecified)", 0.8],
  ["Cc1ccc(-n2ncc3c(N4CCN(c5ccc(F)cc5)CC4)ncnc32)c(C)c1", 4.6],
  ["c1ccc(-c2n[nH]c3ccccc23)cc1", 13.9],
  ["O=C(NC12CC3CC(CC(C3)C1)C2)C1CCCN1C(=O)NC1CCCCC1 (stereo unspecified)", 15.8],
  ["O=C(NC1CC2CCC1C2)c1ccc(CN2CCOCC2)cc1 (stereo unspecified)", 4.3],
  ["CC(=O)OCC(=O)[C@@]1(O)CC[C@H]2[C@@H]3CCC4=CC(=O)C=C[C@]4(C)[C@H]3[C@@H](O)C[C@@]21C", -0.6],
  ["CC(NC(=O)OCc1ccccc1)C(=O)N1CC(O)CC1C(=O)O (stereo unspecified)", 2.6],
  ["Cc1ccc(NC(=O)c2ccc(NS(=O)(=O)c3c(C)noc3C)cc2)cc1C", -9.9],
  ["COc1ccccc1NC1=NC2(CCCC2)N=C(N)N1", -26.7],
  ["COc1cc(NS(=O)(=O)c2cccc3nsnc23)c(C(=O)O)cc1OC", -7.8]
]}
